TEST_TARGET: Nucleotide-binding oligomerization domain-containing protein 1 (Homo sapiens, UniProt Q9Y239)
Sequence (Q9Y239 whole entry): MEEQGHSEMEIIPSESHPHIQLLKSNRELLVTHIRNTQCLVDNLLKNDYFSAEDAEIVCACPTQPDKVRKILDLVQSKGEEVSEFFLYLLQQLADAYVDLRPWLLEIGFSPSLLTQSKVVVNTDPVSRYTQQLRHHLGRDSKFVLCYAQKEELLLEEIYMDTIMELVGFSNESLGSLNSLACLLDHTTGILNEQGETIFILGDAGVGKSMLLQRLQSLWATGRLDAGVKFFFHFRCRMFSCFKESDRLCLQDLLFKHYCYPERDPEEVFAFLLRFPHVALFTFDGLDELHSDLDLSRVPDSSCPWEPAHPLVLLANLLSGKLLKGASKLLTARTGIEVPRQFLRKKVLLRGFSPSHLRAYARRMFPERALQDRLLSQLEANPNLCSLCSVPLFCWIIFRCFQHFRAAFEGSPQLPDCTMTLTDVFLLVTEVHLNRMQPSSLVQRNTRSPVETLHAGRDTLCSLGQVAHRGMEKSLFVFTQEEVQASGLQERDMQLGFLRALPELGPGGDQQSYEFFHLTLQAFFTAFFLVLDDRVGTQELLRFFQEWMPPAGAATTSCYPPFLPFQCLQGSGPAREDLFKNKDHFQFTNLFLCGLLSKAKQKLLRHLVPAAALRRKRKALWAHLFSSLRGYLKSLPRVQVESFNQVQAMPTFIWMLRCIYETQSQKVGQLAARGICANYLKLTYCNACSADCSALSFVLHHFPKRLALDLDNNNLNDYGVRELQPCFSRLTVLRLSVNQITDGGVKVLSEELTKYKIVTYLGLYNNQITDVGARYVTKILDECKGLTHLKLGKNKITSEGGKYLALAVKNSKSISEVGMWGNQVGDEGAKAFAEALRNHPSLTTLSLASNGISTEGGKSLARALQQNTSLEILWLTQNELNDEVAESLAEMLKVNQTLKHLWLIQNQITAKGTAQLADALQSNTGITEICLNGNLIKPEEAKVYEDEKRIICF
METHOD: Agonist activity at human NOD-1 expressed in human HEK293 cells assessed as NF-kappaB induction by spectrophotometric analysis
satisfied if EC50 is below 0.5 nM. not satisfied if not; exact matches included in not satisfied.

## Task Is 0.5 nM strictly greater than the compound's reported EC50? compound: CCCCCCCCCCCCN(CCCCCCCCCCCC)[C@H](CCC(=O)NC(CCCC(N)C(=O)O)C(=O)O)C(=O)O (stereo partly drawn)
## Result satisfied

## Task Strictly below 0.5 nM: is that where EC50 of CCCCCCCCCCCC(=O)N[C@H](CCC(=O)NC(CCCC1NC(N)=NC1=O)C(=O)O)C(=O)O (stereo partly drawn) sits?
## Result not satisfied

## Task Lab note: confirm whether the reported EC50 for this compound is below 0.5 nM, equality not counting. compound: CCCCCCCCCCCC(=O)N[C@H](CCC(=O)NC(CCCC(N)C(=O)O)C(=O)O)C(=O)O (stereo partly drawn)
## Result satisfied

## Task In plain terms, does CCCCCCCCCCCC(=O)N[C@H](CCC(=O)NC(CCCC(NC(=N)N)C(=O)O)C(=O)O)C(=O)O (stereo partly drawn) come in under 0.5 nM for EC50?
## Result not satisfied

## Task Dear reviewer, please state whether CCCCCCCCCCCC(=O)NC(CCCC(NC(=O)CC[C@@H](N)C(=O)O)C(=O)O)C(=O)O (stereo partly drawn) has EC50 strictly beneath 0.5 nM.
## Result not satisfied

## Task Determine whether this compound shows EC50 lower than 0.5 nM (ties excluded): CCCCCCCCCCCCCCCCN(CCCCCCCCCCCCCCCC)[C@H](CCC(=O)NC(CCCC(N)C(=O)O)C(=O)O)C(=O)O (stereo partly drawn)
## Result satisfied

## Task Lab note: EC50 threshold 0.5 nM. Does this compound come in strictly under it? CCCCCCCCCCCC(=O)N[C@H](CCC(=O)N[C@H](CCCCN)C(=O)O)C(=O)O
## Result not satisfied
